system name: tryptophan 2,3-dioxygenase (TDO) (Homo sapiens, UniProt P48775)
Sequence (P48775 whole entry): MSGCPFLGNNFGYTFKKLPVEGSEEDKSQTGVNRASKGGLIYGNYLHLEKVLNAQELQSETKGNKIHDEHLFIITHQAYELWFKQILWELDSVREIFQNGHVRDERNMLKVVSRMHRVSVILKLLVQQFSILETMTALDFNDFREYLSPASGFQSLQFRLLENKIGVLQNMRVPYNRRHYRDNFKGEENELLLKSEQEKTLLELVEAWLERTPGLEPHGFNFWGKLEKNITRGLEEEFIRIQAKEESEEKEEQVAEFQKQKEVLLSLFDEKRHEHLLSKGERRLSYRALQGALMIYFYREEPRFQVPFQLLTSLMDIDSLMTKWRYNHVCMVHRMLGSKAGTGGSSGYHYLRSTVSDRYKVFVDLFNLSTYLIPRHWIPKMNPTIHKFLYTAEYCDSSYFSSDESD
Format: biochemical
pKi: −log10 of the molar value.
measurement label: pKi

molecule="O=C(O)C(O)Cc1c[nH]c2ccccc12 (stereo not shown)" quantitative_readout=3.35
